measuredTarget: PI3Kα (His-PIK3CA/PIK3R1, p110 alpha/p85 alpha) (Homo sapiens (Human))
Sequence (P42336 whole entry, species assumed): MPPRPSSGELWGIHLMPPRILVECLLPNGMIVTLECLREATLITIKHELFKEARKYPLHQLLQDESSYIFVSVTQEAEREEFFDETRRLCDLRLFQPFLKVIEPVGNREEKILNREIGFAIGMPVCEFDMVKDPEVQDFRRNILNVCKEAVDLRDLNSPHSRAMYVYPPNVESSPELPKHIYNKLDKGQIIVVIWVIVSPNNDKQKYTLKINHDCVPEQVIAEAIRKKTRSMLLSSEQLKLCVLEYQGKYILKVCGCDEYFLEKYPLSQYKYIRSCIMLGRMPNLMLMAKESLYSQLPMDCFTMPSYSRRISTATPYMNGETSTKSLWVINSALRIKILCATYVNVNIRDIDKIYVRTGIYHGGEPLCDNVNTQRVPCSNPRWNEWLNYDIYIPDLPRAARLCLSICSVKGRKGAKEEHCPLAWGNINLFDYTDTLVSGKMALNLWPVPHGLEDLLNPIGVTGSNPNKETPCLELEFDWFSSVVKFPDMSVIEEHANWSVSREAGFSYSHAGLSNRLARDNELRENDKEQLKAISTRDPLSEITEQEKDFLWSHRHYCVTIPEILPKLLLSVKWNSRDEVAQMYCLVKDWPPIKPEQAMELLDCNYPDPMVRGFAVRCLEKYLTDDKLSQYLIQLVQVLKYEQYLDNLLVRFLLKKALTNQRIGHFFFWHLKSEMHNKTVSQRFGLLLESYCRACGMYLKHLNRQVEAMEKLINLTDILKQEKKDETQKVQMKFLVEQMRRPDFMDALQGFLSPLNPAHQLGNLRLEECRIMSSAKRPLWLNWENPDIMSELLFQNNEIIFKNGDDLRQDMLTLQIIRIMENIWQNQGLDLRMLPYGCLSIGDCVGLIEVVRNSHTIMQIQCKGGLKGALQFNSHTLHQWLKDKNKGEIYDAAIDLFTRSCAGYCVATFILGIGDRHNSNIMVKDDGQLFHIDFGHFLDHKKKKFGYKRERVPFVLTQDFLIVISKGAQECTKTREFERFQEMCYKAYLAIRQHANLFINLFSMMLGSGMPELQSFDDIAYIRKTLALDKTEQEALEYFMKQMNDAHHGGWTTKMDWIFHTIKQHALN
Sequence (P27986 whole entry partner, species assumed): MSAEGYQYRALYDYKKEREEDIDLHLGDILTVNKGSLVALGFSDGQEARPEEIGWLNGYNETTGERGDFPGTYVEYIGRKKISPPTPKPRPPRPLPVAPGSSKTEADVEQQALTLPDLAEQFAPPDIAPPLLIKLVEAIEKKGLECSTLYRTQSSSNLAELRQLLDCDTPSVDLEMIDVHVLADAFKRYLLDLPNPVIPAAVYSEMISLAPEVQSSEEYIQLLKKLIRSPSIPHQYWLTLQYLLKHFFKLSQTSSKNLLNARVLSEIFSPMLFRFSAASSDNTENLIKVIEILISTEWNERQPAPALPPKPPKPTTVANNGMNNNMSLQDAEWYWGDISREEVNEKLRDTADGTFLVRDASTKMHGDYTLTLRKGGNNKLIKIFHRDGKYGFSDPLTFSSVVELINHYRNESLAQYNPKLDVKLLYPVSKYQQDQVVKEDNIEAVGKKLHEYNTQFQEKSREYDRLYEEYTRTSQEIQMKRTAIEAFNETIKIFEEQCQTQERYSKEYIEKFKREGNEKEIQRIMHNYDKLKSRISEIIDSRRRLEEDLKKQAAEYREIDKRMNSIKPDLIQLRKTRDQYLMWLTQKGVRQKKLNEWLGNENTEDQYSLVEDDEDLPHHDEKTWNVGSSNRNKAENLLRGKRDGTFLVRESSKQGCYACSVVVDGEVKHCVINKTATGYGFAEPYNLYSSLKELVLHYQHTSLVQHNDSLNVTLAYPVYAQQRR
experimentDescription: PI3Kα biochemical assay (HTRF/FRET probe)
Format: binding
recordedConditions: numeric value
testReadout: IC50 (nM)

| smilesStr | IC50, nM |
| --- | --- |
| Cc1cc2ncnn2cc1Nc1ncc2c(n1)n(C13CCC(O)(CC1)C3)c(=O)n2C | 128 |
| Cc1cc2ncnn2cc1Nc1ncc2c(n1)n(C13CCC(O)(CC1)CC3)c(=O)n2C | 152 |

====

Below, each of the compounds is paired with its reported pIC50 value.
measuredTarget: PI3Kδ (His-PIK3CD/PIK3R1, p110 delta/p85 alpha) (Homo sapiens (Human), UniProt O00329)
Sequence (O00329 whole entry, species assumed, one chain of several): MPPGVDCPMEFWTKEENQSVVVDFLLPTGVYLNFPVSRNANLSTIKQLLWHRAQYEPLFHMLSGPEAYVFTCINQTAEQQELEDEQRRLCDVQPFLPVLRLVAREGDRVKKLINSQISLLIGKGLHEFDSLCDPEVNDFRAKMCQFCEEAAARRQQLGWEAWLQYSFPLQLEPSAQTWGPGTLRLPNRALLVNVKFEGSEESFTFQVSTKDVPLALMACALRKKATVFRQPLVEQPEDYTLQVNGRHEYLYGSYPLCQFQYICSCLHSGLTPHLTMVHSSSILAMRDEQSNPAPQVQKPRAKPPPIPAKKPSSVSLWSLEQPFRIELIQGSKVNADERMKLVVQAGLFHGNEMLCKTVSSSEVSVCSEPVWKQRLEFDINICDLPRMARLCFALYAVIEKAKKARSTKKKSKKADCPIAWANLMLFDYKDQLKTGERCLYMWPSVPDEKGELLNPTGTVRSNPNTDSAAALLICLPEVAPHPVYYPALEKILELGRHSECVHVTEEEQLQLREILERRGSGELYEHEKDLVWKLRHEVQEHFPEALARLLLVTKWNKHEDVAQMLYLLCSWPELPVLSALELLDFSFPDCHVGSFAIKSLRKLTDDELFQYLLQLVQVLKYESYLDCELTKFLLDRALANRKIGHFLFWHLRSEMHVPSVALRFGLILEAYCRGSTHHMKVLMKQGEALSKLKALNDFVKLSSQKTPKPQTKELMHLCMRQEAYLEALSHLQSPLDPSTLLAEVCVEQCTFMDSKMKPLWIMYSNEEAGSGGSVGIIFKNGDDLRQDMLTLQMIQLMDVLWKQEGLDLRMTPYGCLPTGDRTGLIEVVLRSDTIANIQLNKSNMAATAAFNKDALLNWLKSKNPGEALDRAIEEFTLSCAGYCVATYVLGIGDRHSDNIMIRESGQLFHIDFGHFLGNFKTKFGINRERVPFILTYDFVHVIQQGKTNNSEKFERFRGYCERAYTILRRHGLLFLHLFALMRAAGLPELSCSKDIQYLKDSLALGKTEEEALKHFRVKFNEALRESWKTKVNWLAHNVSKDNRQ
experimentDescription: PI3Kδ biochemical assay (HTRF/FRET probe)
Format: binding
recordedConditions: class symbol
pIC50: −log10 of the molar value.

| smilesStr | pIC50 |
| --- | --- |
| COC12CCC(n3c(=O)n(C)c4cnc(Nc5cn6ncnc6cc5C)nc43)(C1)C2 | ≤ 6.00 |

Consider the compound COC12CCC(N3CC(=O)N(C)c4cnc(Nc5cc6nsnc6cc5C)nc43)(CC1)C2 and give its recorded pIC50.
6.00 to 7.00

Consider the compound Cc1cc2c(cc1Nc1ncc3c(n1)n(C14CC(F)(C1)C4)c(=S)n3C)OCO2 and give its recorded pIC50.
≤ 6.00

====

measuredTarget: ATM (Homo sapiens (Human), UniProt Q13315)
experimentDescription: ATM biochemical assay (Reaction Biology HTRF kinase assay, 10 μM ATP)
recordedConditions: class symbol
testReadout: IC50

Examples with answers:
| compound | measuredTarget | IC50 |
| --- | --- | --- |
| Cc1cc2c(cc1Nc1ncc3c(n1)n(C1CC4CCC1CC4)c(=O)n3C)OCO2 (stereo not shown) [Compound 43] | ATM (Homo sapiens (Human), UniProt Q13315) | 100 to 1000 nM |
| Cc1cc2nccnc2cc1Nc1ncc2c(n1)n(C13CCC(O)(CC1)C3)c(=S)n2C [Compound 33] | ATM (Homo sapiens (Human), UniProt Q13315) | 100 to 1000 nM |
| Cc1cc2ncnn2cc1Nc1ncc2c(n1)n(C13CC(CC#N)(C1)C3)c(=O)n2C [Compound 22] | ATM (Homo sapiens (Human), UniProt Q13315) | 1 to 10 nM |

Consider the compound Cc1cc2nccnc2cc1Nc1ncc2c(n1)n(C13CC(F)(C1)C3)c(=O)n2C [Compound 15] and give its recorded IC50.
100 to 1000 nM

Consider the compound Cc1cc2nccnc2cc1Nc1ncc2c(n1)n(C13CCC(O)(CC1)C3)c(=O)n2C [Compound 4] and give its recorded IC50.
10 to 100 nM

Consider the compound Cc1cc2nccnc2cc1Nc1ncc2c(n1)N(C13CC(F)(C1)C3)C(=O)C21CC1 [Compound 72] and give its recorded IC50.
100 to 1000 nM

Consider the compound Cc1cc2ncccc2cc1Nc1ncc2c(n1)N(C13CC(F)(C1)C3)C(=O)C21CC1 [Compound 71] and give its recorded IC50.
100 to 1000 nM

Consider the compound COC12CCC(n3c(=O)n(C)c4cnc(Nc5cc(F)c(C(N)=O)cc5C)nc43)(C1)C2 [Compound 40] and give its recorded IC50.
100 to 1000 nM

Consider the compound COC12CCC(n3c(=O)n(C)c4cnc(Nc5cc(F)c(-c6cnco6)cc5C)nc43)(C1)C2 [Compound 41] and give its recorded IC50.
1 to 10 nM

Consider the compound [2H]C([2H])([2H])n1c(=O)n(C23CCC(O)(CC2)C3)c2nc(Nc3cn4ncnc4cc3C)ncc21 [Compound 77] and give its recorded IC50.
10 to 100 nM

Consider the compound Cc1cc2ncnn2cc1Nc1ncc2c(n1)n([C@H]1C[C@@H]3CC[C@H]1C3)c(=O)n2C [Compound 45] and give its recorded IC50.
10 to 100 nM

Consider the compound COC12CCC(N3CC(=O)N(C)c4cnc(Nc5cc6c(cc5C)OCO6)nc43)(CC1)C2 [Compound 63] and give its recorded IC50.
100 to 1000 nM

Consider the compound Cc1cc2nccnc2cc1Nc1ncc2c(n1)N(C13CCC(O)(CC1)C3)C(=O)C21CC1 [Compound 67] and give its recorded IC50.
100 to 1000 nM

====

measuredTarget: PI3Kα (His-PIK3CA/PIK3R1, p110 alpha/p85 alpha) (Homo sapiens (Human))
experimentDescription: PI3Kα biochemical assay (HTRF/FRET probe)
Assay type: binding
recordedConditions: class symbol
Description: Phosphoinositide 3-kinase α (PI3Kα) Biochemical Assay: A solution was prepared containing 0.2 nM Anti-HIS-Terbium (Cisbio, 64CUSTAZU), 3.7 nM designed-probe and 1.0 nM His-PIK3CA/PIK3R1 (p110 alpha/p85 alpha) in FRET Buffer (20 mM HEPES, 10 mM MgCl2, 0.015% Brij-35, 4 mM DTT, 0.05 mg/mL BSA).
pIC50: −log10 of the molar value.
testReadout: pIC50

Examples with answers:
| compound | readoutValue |
| --- | --- |
| Cc1cc2ncnn2cc1Nc1ncc2c(n1)n([C@H]1C[C@@H]3CC[C@H]1C3)c(=O)n2C | 6.00 to 7.00 |
| Cc1cc2c(cc1Nc1ncc3c(n1)n(C1CC4CCC1CC4)c(=O)n3C)OCO2 (stereo not shown) | ≤ 6.00 |
| Cc1cc2nsnc2cc1Nc1ncc2c(n1)n(C13CCC(O)(CC1)C3)c(=O)n2C | 7.00 to 8.00 |

Consider the compound Cc1cc2c(cc1Nc1ncc3c(n1)N(C14CCC(O)(CC1)C4)CC(=O)N3C)OCO2 and give its recorded pIC50.
≤ 6.00

====

measuredTarget: DNA-PK (Homo sapiens (Human), UniProt P78527)
experimentDescription: DNA-PK biochemical assay (Reaction Biology HotSpot kinase assay, 10 μM ATP)
recordedConditions: class symbol
Description: DNA-PK Biochemical Assay Using Reaction Biology's HotSpot Kinase Assay Protocol: Reagent: Base Reaction buffer; 20 mM Hepes (pH 7.5), 10 mM MgCl2, 1 mM EGTA, 0.01% Brij35, 0.02 mg/ml BSA, 0.1 mM Na3VO4, 2 mM DTT, 1% DMSO Required cofactors are added individually to each kinase reaction. Reaction Procedure: 1. Prepare substrate in freshly prepared Reaction Buffer; 2. Deliver any required cofactors to the substrate solution above; 3. Deliver kinase into the substrate solution and gently mix; 4. […]
Below, each of the compounds is paired with its reported IC50 value.

Examples with answers:
| compound | IC50 |
| --- | --- |
| Cc1cc2ncnn2cc1Nc1ncc2c(n1)n(C13CCC(O)(CC1)C3)c(=S)n2C [Compound 31] | 1 to 10 nM |
| COC12CCC(n3c(=O)n(C)c4cnc(Nc5cc(F)c(-c6cnco6)cc5C)nc43)(C1)C2 [Compound 41] | 1 to 10 nM |

Consider the compound Cc1cc2c(cc1Nc1ncc3c(n1)n(C14CC(CC#N)(C1)C4)c(=O)n3C)OCO2 [Compound 23] and give its recorded IC50.
1 to 10 nM

Consider the compound COCC12CC(n3c(=O)n(C)c4cnc(Nc5cc6c(cc5C)OCO6)nc43)(C1)C2 [Compound 21] and give its recorded IC50.
1 to 10 nM

====

measuredTarget: PI3Kβ (Homo sapiens (Human))
Sequence (P42338 whole entry, one chain of several): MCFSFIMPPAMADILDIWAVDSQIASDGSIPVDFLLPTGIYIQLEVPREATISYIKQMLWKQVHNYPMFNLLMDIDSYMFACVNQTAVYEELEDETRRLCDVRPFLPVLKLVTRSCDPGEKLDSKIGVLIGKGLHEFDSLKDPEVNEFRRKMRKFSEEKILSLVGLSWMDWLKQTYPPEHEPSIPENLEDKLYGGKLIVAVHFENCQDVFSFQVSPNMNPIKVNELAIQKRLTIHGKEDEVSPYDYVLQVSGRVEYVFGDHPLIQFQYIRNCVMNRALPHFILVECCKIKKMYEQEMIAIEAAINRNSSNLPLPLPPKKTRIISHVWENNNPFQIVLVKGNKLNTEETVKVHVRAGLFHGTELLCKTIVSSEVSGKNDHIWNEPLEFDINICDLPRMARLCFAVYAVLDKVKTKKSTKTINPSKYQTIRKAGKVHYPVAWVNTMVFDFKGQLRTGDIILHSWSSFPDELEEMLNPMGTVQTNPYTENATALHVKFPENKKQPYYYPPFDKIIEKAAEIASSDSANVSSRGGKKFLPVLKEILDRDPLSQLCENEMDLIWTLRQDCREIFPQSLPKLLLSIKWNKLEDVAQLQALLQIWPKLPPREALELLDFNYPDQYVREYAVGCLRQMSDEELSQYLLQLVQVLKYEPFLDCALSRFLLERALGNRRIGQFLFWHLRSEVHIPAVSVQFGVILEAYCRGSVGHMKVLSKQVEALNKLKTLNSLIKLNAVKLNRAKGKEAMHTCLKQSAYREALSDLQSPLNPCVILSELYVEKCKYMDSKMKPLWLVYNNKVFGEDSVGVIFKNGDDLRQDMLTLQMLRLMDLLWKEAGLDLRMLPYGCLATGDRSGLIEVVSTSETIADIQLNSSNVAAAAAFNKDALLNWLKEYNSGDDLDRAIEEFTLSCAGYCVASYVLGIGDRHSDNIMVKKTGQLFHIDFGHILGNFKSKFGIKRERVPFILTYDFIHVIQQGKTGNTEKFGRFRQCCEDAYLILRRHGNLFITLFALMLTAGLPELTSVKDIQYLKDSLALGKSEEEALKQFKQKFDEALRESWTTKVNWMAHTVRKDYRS
experimentDescription: PI3Kβ biochemical assay (Reaction Biology ADP-Glo)
recordedConditions: class symbol
testReadout: IC50

Examples with answers:
| compound | measuredTarget | IC50 |
| --- | --- | --- |
| Cc1cc2ncnn2cc1Nc1ncc2c(n1)n([C@H]1C[C@@H]3CC[C@H]1C3)c(=O)n2C | PI3Kβ (Homo sapiens (Human)) | 100 to 1000 nM |
| Cc1cc2ncccc2cc1Nc1ncc2c(n1)n([C@H]1C[C@@H]3CC[C@H]1C3)c(=O)n2C | PI3Kβ (Homo sapiens (Human)) | 100 to 1000 nM |
| Cc1cc2ncnn2cc1Nc1ncc2c(n1)n(C13CCC(O)(CC1)C3)c(=O)n2C | PI3Kβ (Homo sapiens (Human)) | 100 to 1000 nM |

Consider the compound Cc1cc2ncnn2cc1Nc1ncc2c(n1)n(C13CC(F)(C1)C3)c(=O)n2C and give its recorded IC50.
≥ 1000 nM

Consider the compound Cc1cc2c(cc1Nc1ncc3c(n1)n(C14CCC(O)(CC1)C4)c(=O)n3C)OCO2 and give its recorded IC50.
≥ 1000 nM

Consider the compound Cc1cc2ncnn2cc1Nc1ncc2c(n1)n(C1CC3CCC1CC3)c(=O)n2C (centres unmarked) and give its recorded IC50.
100 to 1000 nM

Consider the compound COC12CCC(n3c(=O)n(C)c4cnc(Nc5cn6ncnc6cc5C)nc43)(CC1)C2 and give its recorded IC50.
100 to 1000 nM

Consider the compound COC12CCC(n3c(=O)n(C)c4cnc(Nc5cc6c(cc5C)OCO6)nc43)(CC1)C2 and give its recorded IC50.
≥ 1000 nM

Each recorded value in this set is attributed to patent US20250263753A1.
